Target: Torsin-1A (Homo sapiens)
Experiment: small-molecule binders of mutant TOR1A in lysate, primary screen, cell lysate, small-molecule microarray, COS7 lysate, 635/667 nm fluorescence (AID 1150);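 further: score pools 667 nm emission and signal to noise measuring lysate protein binding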
Details: COS7 hTOR1A mutant lysate, 635 nm fluorescence, higher = more signal
observation type: composite z-score
Note: the reply should be a number with no unit written.

composite z-score measured on C=CC[C@]1(C(=O)NCCCOC)N=C(c2ccc(OCCCO)cc2)O[C@H]1c1ccccc1N=[N+]=[N-] = 0.878

----------
Experiment: inhibitors of hydroxyurea-induced Chk1 phosphorylation, primary screen, imaging, HeLa, phospho-Chk1 nuclear intensity (AID 1187); further: test concentration not given here
Conditions: hydroxyurea-induced phospho-Chk1 immunofluorescence imaging, higher = more signal
observation type: z-score
No unit in the answer, only the number.

Below, 5 molecules whose answers are already recorded.
molecule	z-score
C=CCC(OC(C)=O)[C@@H]1[C@@H](N(Cc2ccc(-c3ccccc3)cc2)C(=O)Cc2ccc(F)cc2)c2cc(OCCCO)ccc2N1C(=O)c1ccc(-c2ccccc2)cc1 (some centres not stated)	-0.285
C=CCNC(=O)[C@@H]1[C@H]2C(=O)O[C@H](c3ccccc3)[C@H](c3ccccc3)N2[C@H](c2ccccc2OCCO)[C@@]12C(=O)N(C(=O)OCCOC)c1ccc(C#CCNC(N)=O)cc12	-0.159
C=CCNC(=O)[C@H]1[C@@H]2C(=O)O[C@@H](c3ccccc3)[C@@H](c3ccccc3)N2[C@@H](c2ccccc2OCCO)[C@]12C(=O)Nc1ccc(C#CC3=CCCCC3)cc12	-0.739
O=C(C1N=C(c2ccc(OCCCO)cc2)N(c2ccccc2)O1)N1CCOCC1 (configuration not stated)	-0.262
O=C1OCCC/C=C\[C@H]2OC34C=CCN(Cn5nnc6ccccc65)C(=O)[C@H]3N(CCO)C(=O)[C@@H]4C12 (some centres not stated)	0.371

Value of measured z-score for the entry CC(C)C(CO)N1C(=O)[C@@H]2[C@H]3C(=O)OCC=C[C@H]3OC23C=CCN(C(C)C)C(=O)[C@@H]13 (some centres not stated) : 0.305

The molecule identified as CC1(C)[C@@H]2CC(C(O)C3C=CC4C(=O)N(c5ccccc5)C(=O)C4N3Nc3ccccc3)=C[C@H]1C2 (some centres not stated) registered its z-score at -0.715

----------
Tested on: Plasmodium falciparum Sir2 (PF13_0152, Sir2A)
Test: pfSir2 binders on small-molecule microarrays, primary screen, biochemical, small-molecule microarray, 635 nm fluorescence (AID 1098);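 further: score merges spot fluorescence intensity with its signal-to-noise ratio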
Conditions: small-molecule microarray binding, fluorescence 635 nm; higher = more signal
observation type: composite z-score
// print number alone

Some solved cases for reference:
compound	composite z-score
CC(C)OC(=O)C=C1C[C@@H](c2ccccc2C(F)(F)F)O[C@@H](c2ccccc2C(F)(F)F)O1	0.192
[N-]=[N+]=Nc1ccccc1C[C@]1(C(N)=O)N=C(c2ccc(OCCCO)cc2)O[C@H]1c1ccccc1	1.13
CCOC(=O)C[C@H]1[C@H](OC(=O)Cc2ccc3c(c2)OCO3)[C@@H](NC(=O)c2ccc3ccccc3c2)c2cc(OCCCO)ccc2N1C(=O)c1ccccc1	0.622
COCCOC(=O)N1C(=O)[C@@]2(c3cc(C#Cc4ccc(OC)cc4)ccc31)[C@H](c1ccccc1OCCO)N1[C@H](c3ccccc3)[C@H](c3ccccc3)OC(=O)[C@H]1[C@@H]2C(=O)N1CCN(c2ncccn2)CC1	0.864
O=C(NCc1ccccc1)[C@@H]1c2ccccc2C(=O)N(CC23CC4CC(CC(C4)C2)C3)[C@H]1c1ccc(CO)cc1	1.6
C=C(CCCC)C(=O)CC[C@H](OC(C)=O)c1cccc(OCCO)c1	0.707

In the following, a different compound is considered.
Entry under test: CC(CO)N1C(=O)[C@@H]2C3C(=O)OCCC/C=C\[C@H]3OC23C=CCN(c2ccc4ccccc4c2)C(=O)[C@@H]13 (some centres not stated) . Its composite z-score was 0.0726

----------
Test: P. aeruginosa biofilm formation inhibitors, primary screen, strain PAO1, LB-PBS medium, absorbance 600 nm (AID 1176); further: test concentration not given here
Conditions: P. aeruginosa PAO1 growth/biofilm, A600, 12 h; higher = more signal
Binning scheme for z-score: lower = under 0.3, middle = from 0.3 up to 0.9, upper = 0.9 and over

// known answers, use as guide
compound	category label
COc1ccc(CCN2C(=O)[C@@]3(Cc4ccccc42)c2ccccc2C(=O)N(Cc2ccccc2C(F)(F)F)[C@H]3c2ccc(CO)cc2)cc1	middle
O=C1O[C@H](c2ccccc2)[C@H](c2ccccc2)N2[C@H]1[C@@H](C(=O)NC[C@H](O)c1ccccc1)[C@]1(C(=O)Nc3ccccc31)[C@H]2c1ccc(OCCO)cc1	upper
[N-]=[N+]=NCc1ccccc1[C@@H]1OC(c2ccc(OCCCO)cc2)=N[C@]1(Cc1ccccc1N=[N+]=[N-])C(=O)N1CCOCC1	middle

Hi there! Could you help me figure out the category for CCOC(=O)C[C@H]1[C@H](OC(=O)Cc2ccc3c(c2)OCO3)[C@@H](NC(=O)c2ccc(-c3ccccc3)cc2)c2cc(OCCCO)ccc2N1C(=O)Cc1ccc(OC)cc1 please?
lower

Could you tell me which band CC(C)C(CO)N1C(=O)[C@@H]2[C@H]3C(=O)OCC=C[C@H]3OC23C=CCN(C(C)C)C(=O)[C@@H]13 (stereo not given in full) belongs to?
lower

----------
Assay: osmotic lysis modulators in infected erythrocytes, primary screen, PSAC antagonist project, cell-based, P. falciparum Indochina, OD700, 3 h (AID 1156)
Conditions: higher = more signal, called active from +8 up or from −8 down
Attribute: z-score
Lab note: record the figure alone, no unit after it.

Here's what some known entries look like.
compound	data value
COC(=O)c1c(CC[C@@H](CO)NC(=O)N[C@@H](C)Cn2cc(C3(O)CCCCC3)nn2)oc(C(C)=O)c1C(=O)OC	1.01
C=C(CCCC)C(=O)CC[C@H](OC(=O)c1cccnc1)c1ccccc1OCCO	0.232
O=C1OCC=C[C@H]2OC34C=CCN(CCN5CCOCC5)C(=O)[C@H]3N(CCCO)C(=O)[C@@H]4[C@@H]12 (some centres not stated)	1.27

The compound identified as Cc1ccc(S[C@]2(C(=O)NC3CC3)CC(=O)N(C3Cc4ccccc4C3)[C@@H]2c2ccc(CO)cc2)cc1 registered its z-score at -0.758

Recorded z-score (compound COCCOC(=O)N1C(=O)[C@@]2(c3cc(C#CC4(O)CCCCCC4)ccc31)[C@H](c1ccc(O)cc1)N1[C@H](c3ccccc3)[C@H](c3ccccc3)OC(=O)[C@H]1[C@@H]2C(=O)Nc1nc2ccccc2s1 ): 0.207

GET /value?item= COCCOC(=O)N1C(=O)[C@@]2(c3cc(C#CC4=CCCCC4)ccc31)[C@H](c1ccc(O)cc1)N1[C@H](c3ccccc3)[C@H](c3ccccc3)OC(=O)[C@H]1[C@@H]2C(N)=O &field=z-score returns 0.193

Reported z-score of COC(=O)c1c(CC[C@@H](CO)NC(=O)N2CCC[C@H]2Cn2cc(-c3ccccn3)nn2)oc(C(C)=O)c1C(=O)OC : -0.315

----------
Target: Dickkopf-related protein 1 (Homo sapiens) (UniProt O94907)
Sequence (O94907 whole entry, looked up): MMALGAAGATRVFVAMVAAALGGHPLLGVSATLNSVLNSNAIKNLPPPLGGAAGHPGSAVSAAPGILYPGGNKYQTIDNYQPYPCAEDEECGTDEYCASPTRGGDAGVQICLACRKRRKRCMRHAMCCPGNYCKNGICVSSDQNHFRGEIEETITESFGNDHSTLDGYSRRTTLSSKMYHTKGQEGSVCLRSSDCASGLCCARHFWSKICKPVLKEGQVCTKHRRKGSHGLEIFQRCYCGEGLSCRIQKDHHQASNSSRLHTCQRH
Experiment: DKK1 binders on small-molecule microarrays, primary screen, biochemical, small-molecule microarray, 635 nm fluorescence scan (AID 1106);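 further: score merges emission near 667 nm with signal to noise over three replicate slides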
Details: DKK1 binding, higher = more signal
Outcome label depends on composite z-score relative to 0.4: at/above gives t, below gives f.

Below are worked cases with known answers.
compound	category label
CN1C(=O)C2C=CC(C(O)c3cc(C(F)(F)F)cc(C(F)(F)F)c3)N(N3CCCCC3)C2C1=O (stereo not drawn)	f
CC[C@@H]1C=C(C(=O)O)[C@H](c2ccco2)N1S(=O)(=O)c1ccc(C)cc1	f
C[C@]1(C(=O)NC2CC2)c2ccccc2C(=O)N(Cc2cc(C(F)(F)F)cc(C(F)(F)F)c2)[C@H]1c1ccc(CO)cc1	t
CC(C)(C)OC(=O)CC[C@]12N=C(c3ccc(OCCCO)cc3)O[C@H]1c1ccccc1N(CCS(=O)(=O)c1ccccc1)C2=O	t
COC(=O)[C@@]1(Cc2ccc(F)cc2)[C@H]2c3cc(C(=O)N(C)C)n(CC4CC4)c3C[C@H]2CN1C(=O)c1ccccc1	f
CC(C)(C)OC(=O)CC[C@]1(C(=O)NCC(O)CO)COC(c2ccc(OCCCO)cc2)=N1 (stereo partly drawn)	f

Determine whether this compound has composite z-score no lower than 0.4: CCOC(=O)C[C@H]1[C@H](OC(=O)Cc2ccc3c(c2)OCO3)[C@@H](NC(=O)c2ccc3ccccc3c2)c2cc(OCCCO)ccc2N1C(=O)c1ccccc1
f

Does composite z-score meet or surpass 0.4 for C=CCOC(=O)[C@@H]1[C@H]2C(=O)O[C@H](c3ccccc3)[C@H](c3ccccc3)N2[C@H](c2ccc(OCCOC(=O)[C@@H]3C[C@@H]4C(=O)N5CCC[C@H]5C(=O)N4[C@@H]3c3ccc(O)cc3)cc2)[C@@]12C(=O)Nc1ccc(I)cc12 ?
t

Hi, just wondering whether COc1ccc(C(O)C2C=CC3C(=O)NC(=O)C3N2Nc2ccccn2)c2ccccc12 (stereo not drawn) shows composite z-score of 0.4 or higher.
f
